pIC50: −log10 of the molar value. Structures can show the parent of a compound that is named as a salt.
Quick note: these are pIC50 numbers for system: PDE10A (Homo sapiens)
Sequence (Q9Y233 whole entry, looked up): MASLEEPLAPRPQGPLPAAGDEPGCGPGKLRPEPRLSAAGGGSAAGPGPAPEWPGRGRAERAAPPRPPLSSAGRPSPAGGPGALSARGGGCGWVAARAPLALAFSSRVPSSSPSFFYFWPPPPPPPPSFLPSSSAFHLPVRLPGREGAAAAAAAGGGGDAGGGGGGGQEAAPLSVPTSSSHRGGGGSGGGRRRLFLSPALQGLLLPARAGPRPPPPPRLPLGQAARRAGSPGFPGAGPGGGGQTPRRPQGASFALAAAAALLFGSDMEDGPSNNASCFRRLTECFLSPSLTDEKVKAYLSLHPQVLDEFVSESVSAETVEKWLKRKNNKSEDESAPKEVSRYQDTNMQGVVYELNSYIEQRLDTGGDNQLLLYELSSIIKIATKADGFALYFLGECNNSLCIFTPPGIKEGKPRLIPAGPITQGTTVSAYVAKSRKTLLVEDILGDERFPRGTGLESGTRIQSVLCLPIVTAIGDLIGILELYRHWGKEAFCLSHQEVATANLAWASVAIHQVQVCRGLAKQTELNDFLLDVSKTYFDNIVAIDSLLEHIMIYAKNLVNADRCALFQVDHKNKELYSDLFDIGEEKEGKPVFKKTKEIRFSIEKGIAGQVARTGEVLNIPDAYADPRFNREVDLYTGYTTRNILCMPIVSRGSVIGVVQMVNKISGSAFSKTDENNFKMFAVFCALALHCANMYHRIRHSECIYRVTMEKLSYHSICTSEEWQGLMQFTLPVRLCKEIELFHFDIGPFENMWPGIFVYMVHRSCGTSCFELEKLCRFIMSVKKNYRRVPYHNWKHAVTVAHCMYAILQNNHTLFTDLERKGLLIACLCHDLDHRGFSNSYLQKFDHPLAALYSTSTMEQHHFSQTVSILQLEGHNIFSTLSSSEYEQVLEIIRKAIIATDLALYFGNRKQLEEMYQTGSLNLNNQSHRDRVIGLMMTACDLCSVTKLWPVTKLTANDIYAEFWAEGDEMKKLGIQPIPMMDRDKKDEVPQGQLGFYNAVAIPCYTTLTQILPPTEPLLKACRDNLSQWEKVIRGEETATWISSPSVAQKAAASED
endpoint.label: pIC50

compound | study.target | endpoint.label | test.result
COc1cc2cncc(Cc3cnc4ccccc4c3)c2cc1O [Compound 29, dihydrochloride] | PDE10A (Homo sapiens) | pIC50 | < 5.00
COc1cc2c(Cc3cnc4ccccc4c3)cncc2cc1O [Compound 30, dihydrochloride] | PDE10A (Homo sapiens) | pIC50 | < 5.00
COc1cc2c(Cc3cnc4ccccc4c3)cnc(C3CCCCC3)c2cc1OC [Compound 71, dihydrochloride] | PDE10A (Homo sapiens) | pIC50 | < 5.00

* * *

Reported IC50 for target or system PDE4D3 (Homo sapiens (Human), UniProt Q08499), by entry.

molecule.smiles | IC50
COCc1ncc(Cc2cnc3ccc(O)c(C(F)(F)F)c3c2)c2cc(OC)c(OC)cc12 | 194 nM
CCc1ncc(Cc2ccc3cccc(O)c3n2)c2cc(OC)c(OC)cc12 | 439 nM
